Overview of recorded viability, T/C for various compounds
Test system: 616215-338-R-J1-PDC complex spheroids, viability % test/control;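 also: spheroids exposed to agents for 7 days; 100% = DMSO vehicle wells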
measurementDescription: Anticancer human tumor 616215-338-R-J1-PDC patient-derived colon adenocarcinoma cell line growth inhibition [CLK]
testConditions: second compound 10 µM; first compound 0.01 µM; hits give low values
Report only the number, with the unit % understood.

The examples below pair each entry with its known result.
[[record]]
compound = "COc1c(OCCCN2CCOCC2)ccc2c3n(c(=NC(=O)c4cnc(N)nc4)nc12)CCN3 + CNC(=O)c1ccc(Nc2nc(OC3CCCC3)c3c(-c4ccc5nc(C)oc5c4)c[nH]c3n2)c(OC)c1"
assaytarget = "616215-338-R-J1-PDC complex spheroids, viability % test/control"
observedmeasurement = 29.4

[[record]]
compound = "CCc1c2c(nc3ccc(O)cc13)-c1cc3c(c(=O)n1C2)COC(=O)[C@]3(O)CC + CNC(=O)c1ccc(Nc2nc(OC3CCCC3)c3c(-c4ccc5nc(C)oc5c4)c[nH]c3n2)c(OC)c1"
assaytarget = "616215-338-R-J1-PDC complex spheroids, viability % test/control"
observedmeasurement = 25.2

[[record]]
compound = "CCc1c2c(nc3ccc(O)cc13)-c1cc3c(c(=O)n1C2)COC(=O)[C@]3(O)CC + CN1CCN(c2cc(C(=O)Nc3cc4cc(-c5cnn(C)c5)ccc4cn3)ccn2)CC1"
assaytarget = "616215-338-R-J1-PDC complex spheroids, viability % test/control"
observedmeasurement = 0.13

[[record]]
compound = "Cn1ncnc1[C@H]1c2n[nH]c(=O)c3cc(F)cc(c23)N[C@@H]1c1ccc(F)cc1 + CNC(=O)c1ccc(Nc2nc(OC3CCCC3)c3c(-c4ccc5nc(C)oc5c4)c[nH]c3n2)c(OC)c1"
assaytarget = "616215-338-R-J1-PDC complex spheroids, viability % test/control"
observedmeasurement = 50.1

[[record]]
compound = "CCN1CCN(Cc2ccc(Nc3ncc(F)c(-c4cc(F)c5nc(C)n(C(C)C)c5c4)n3)nc2)CC1 + CN1CCN(c2cc(C(=O)Nc3cc4cc(-c5cnn(C)c5)ccc4cn3)ccn2)CC1"
assaytarget = "616215-338-R-J1-PDC complex spheroids, viability % test/control"
observedmeasurement = 0.19

[[record]]
compound = "COc1c(OCCCN2CCOCC2)ccc2c3n(c(=NC(=O)c4cnc(N)nc4)nc12)CCN3 + CN1CCN(c2cc(C(=O)Nc3cc4cc(-c5cnn(C)c5)ccc4cn3)ccn2)CC1"
assaytarget = "616215-338-R-J1-PDC complex spheroids, viability % test/control"
observedmeasurement = 0.15


Query :: What value of viability, T/C on 616215-338-R-J1-PDC complex spheroids, viability % test/control does Cn1ncnc1[C@H]1c2n[nH]c(=O)c3cc(F)cc(c23)N[C@@H]1c1ccc(F)cc1 + CN1CCN(c2cc(C(=O)Nc3cc4cc(-c5cnn(C)c5)ccc4cn3)ccn2)CC1 have?
Result :: 0.13

Query :: Notebook: pull reported viability, T/C for 616215-338-R-J1-PDC complex spheroids, viability % test/control, entry CCN1CCN(Cc2ccc(Nc3ncc(F)c(-c4cc(F)c5nc(C)n(C(C)C)c5c4)n3)nc2)CC1 + CNC(=O)c1ccc(Nc2nc(OC3CCCC3)c3c(-c4ccc5nc(C)oc5c4)c[nH]c3n2)c(OC)c1
Result :: 46.8
